- METHOD: Ex vivo biodistribution in mice with U266 tumor xenografts
- CONDITION: both sexes, NSG, mouse, lung, 50 µCi; 60 min p.i.; U266 xenograft mice; read-out: uptake in lung
ATTRIBUTE MEASURED: tissue uptake at 1 h (%ID/g)
Report the figure in %ID/g without appending any unit label.

## Task Reported tissue uptake at 1 h for CC[C@H](C)[C@@H]1NC(=O)[C@@H]2CCCN2C(=O)[C@H](Cc2ccccc2)NC(=O)[C@H](CC(=O)O)NC(=O)[C@H](C)NC(=O)[C@@H]2CSCc3cc(cc(c3)CSC[C@H](NC(=O)[C@H](C)NC(=O)CCOCCOCCOCCNC(=O)CN3CCN(CC(=O)O)CCN(CC(=O)O)CC3)C(=O)N[C@@H](C(C)C)C(=O)N3CCC[C@H]3C(=O)N2)CSC[C@@H](C(N)=O)NC(=O)[C@H](Cc2ccc(O)cc2)NC(=O)[C@H](Cc2c[nH]c3ccccc23)NC1=O [[^68Ga]Ga‐AJ206, metal not drawn] : what is it?
## Result 0.42

###

- METHOD: Ex vivo biodistribution in mice with MM1S tumor xenografts
- CONDITION: female, NSG, mouse, ovary, 80 µCi, 60 min p.i.; MM1S xenograft mice; read-out: uptake in ovary
ATTRIBUTE MEASURED: tissue uptake at 1 h
Respond with a number, then the unit of measure.

## Task Reported tissue uptake at 1 h for CC[C@H](C)[C@@H]1NC(=O)[C@@H]2CCCN2C(=O)[C@H](Cc2ccccc2)NC(=O)[C@H](CC(=O)O)NC(=O)[C@H](C)NC(=O)[C@@H]2CSCc3cc(cc(c3)CSC[C@H](NC(=O)[C@H](C)NC(=O)CCOCCOCCOCCNC(=O)CN3CCN(CC(=O)O)CCN(CC(=O)O)CC3)C(=O)N[C@@H](C(C)C)C(=O)N3CCC[C@H]3C(=O)N2)CSC[C@@H](C(N)=O)NC(=O)[C@H](Cc2ccc(O)cc2)NC(=O)[C@H](Cc2c[nH]c3ccccc23)NC1=O [[^68Ga]Ga‐AJ206, metal not drawn] : what is it?
## Result 0.2 %ID/g

###

- METHOD: Ex vivo biodistribution in mice with MM1S tumor xenografts
- CONDITION: both sexes, NSG, mouse, muscle, 2 mg/kg, 60 min p.i.; MM1S xenograft mice with blocking dose (2 mg kg^−1 AJ206); read-out: uptake in muscle
ATTRIBUTE MEASURED: tissue uptake at 1 h
Respond with a number, then the unit of measure.

## Task Reported tissue uptake at 1 h for CC[C@H](C)[C@@H]1NC(=O)[C@@H]2CCCN2C(=O)[C@H](Cc2ccccc2)NC(=O)[C@H](CC(=O)O)NC(=O)[C@H](C)NC(=O)[C@@H]2CSCc3cc(cc(c3)CSC[C@H](NC(=O)[C@H](C)NC(=O)CCOCCOCCOCCNC(=O)CN3CCN(CC(=O)O)CCN(CC(=O)O)CC3)C(=O)N[C@@H](C(C)C)C(=O)N3CCC[C@H]3C(=O)N2)CSC[C@@H](C(N)=O)NC(=O)[C@H](Cc2ccc(O)cc2)NC(=O)[C@H](Cc2c[nH]c3ccccc23)NC1=O [[^68Ga]Ga‐AJ206, metal not drawn] : what is it?
## Result 0.21 %ID/g

###

- METHOD: Ex vivo biodistribution in mice with MM1S tumor xenografts
- CONDITION: both sexes, NSG, mouse, blood, 80 µCi, total radioactivity, 60 min p.i.; MM1S xenograft mice; read-out: uptake in blood
- Method: […] Mice with 100–200 mm^3 tumor volume were used for ex vivo biodistribution studies. For radiotracer pharmacokinetics studies, mice with MOLP8 tumor xenografts received ≈80 µCi (2.96 MBq) [^68Ga]Ga‐AJ206 and were sacrificed at pre‐determined time points (5, 30, 60 and 120 min). Similarly, for dosimetry study, mice with MM1S tumor xenografts received ≈80 µCi (2.96 MBq) of [^68Ga]Ga‐AJ206 and were sacrificed at pre‐determined time points (5, 30, 60, 90 and 120 min). […]
ATTRIBUTE MEASURED: tissue uptake at 1 h (%ID/g)
Report the figure in %ID/g without appending any unit label.

## Task Reported tissue uptake at 1 h for CC[C@H](C)[C@@H]1NC(=O)[C@@H]2CCCN2C(=O)[C@H](Cc2ccccc2)NC(=O)[C@H](CC(=O)O)NC(=O)[C@H](C)NC(=O)[C@@H]2CSCc3cc(cc(c3)CSC[C@H](NC(=O)[C@H](C)NC(=O)CCOCCOCCOCCNC(=O)CN3CCN(CC(=O)O)CCN(CC(=O)O)CC3)C(=O)N[C@@H](C(C)C)C(=O)N3CCC[C@H]3C(=O)N2)CSC[C@@H](C(N)=O)NC(=O)[C@H](Cc2ccc(O)cc2)NC(=O)[C@H](Cc2c[nH]c3ccccc23)NC1=O [[^68Ga]Ga‐AJ206, metal not drawn] : what is it?
## Result 0.75

###

- METHOD: Ex vivo biodistribution in mice with MM1S tumor xenografts
- CONDITION: both sexes, NSG, mouse, tumor/muscle, total radioactivity, 60 min p.i.; MM1S xenograft mice with blocking dose (2 mg kg^−1 AJ206); read-out: Tumor/Muscle ratio
ATTRIBUTE MEASURED: tissue to tissue ratio at 1 h
Answer with a number only.

## Task Reported tissue to tissue ratio at 1 h for CC[C@H](C)[C@@H]1NC(=O)[C@@H]2CCCN2C(=O)[C@H](Cc2ccccc2)NC(=O)[C@H](CC(=O)O)NC(=O)[C@H](C)NC(=O)[C@@H]2CSCc3cc(cc(c3)CSC[C@H](NC(=O)[C@H](C)NC(=O)CCOCCOCCOCCNC(=O)CN3CCN(CC(=O)O)CCN(CC(=O)O)CC3)C(=O)N[C@@H](C(C)C)C(=O)N3CCC[C@H]3C(=O)N2)CSC[C@@H](C(N)=O)NC(=O)[C@H](Cc2ccc(O)cc2)NC(=O)[C@H](Cc2c[nH]c3ccccc23)NC1=O [[^68Ga]Ga‐AJ206, metal not drawn] : what is it?
## Result 8.31

###

- METHOD: Ex vivo biodistribution in mice with MM1S tumor xenografts
- CONDITION: both sexes, NSG, mouse, kidney, 80 µCi, 90 min p.i.; MM1S xenograft mice; read-out: uptake in kidney
- Protocol: […] Mice with 100–200 mm^3 tumor volume were used for ex vivo biodistribution studies. For radiotracer pharmacokinetics studies, mice with MOLP8 tumor xenografts received ≈80 µCi (2.96 MBq) [^68Ga]Ga‐AJ206 and were sacrificed at pre‐determined time points (5, 30, 60 and 120 min). Similarly, for dosimetry study, mice with MM1S tumor xenografts received ≈80 µCi (2.96 MBq) of [^68Ga]Ga‐AJ206 and were sacrificed at pre‐determined time points (5, 30, 60, 90 and 120 min). […]
ATTRIBUTE MEASURED: tissue uptake at 1.5 h (%ID/g)
Report the figure in %ID/g without appending any unit label.

## Task Reported tissue uptake at 1.5 h for CC[C@H](C)[C@@H]1NC(=O)[C@@H]2CCCN2C(=O)[C@H](Cc2ccccc2)NC(=O)[C@H](CC(=O)O)NC(=O)[C@H](C)NC(=O)[C@@H]2CSCc3cc(cc(c3)CSC[C@H](NC(=O)[C@H](C)NC(=O)CCOCCOCCOCCNC(=O)CN3CCN(CC(=O)O)CCN(CC(=O)O)CC3)C(=O)N[C@@H](C(C)C)C(=O)N3CCC[C@H]3C(=O)N2)CSC[C@@H](C(N)=O)NC(=O)[C@H](Cc2ccc(O)cc2)NC(=O)[C@H](Cc2c[nH]c3ccccc23)NC1=O [[^68Ga]Ga‐AJ206, metal not drawn] : what is it?
## Result 13.2

###

- METHOD: Ex vivo biodistribution in mice with MOLP8 tumor xenografts
- Set-up: species or system NSG mice
- CONDITION: both sexes, NSG, mouse, tumor/muscle, 80 uCi, total radioactivity, 30 min p.i.; MOLP8 xenograft mice; read-out: Tumor/muscle ratio
ATTRIBUTE MEASURED: tissue to tissue ratio at 0.5 h

## Task Reported tissue to tissue ratio at 0.5 h for CC[C@H](C)[C@@H]1NC(=O)[C@@H]2CCCN2C(=O)[C@H](Cc2ccccc2)NC(=O)[C@H](CC(=O)O)NC(=O)[C@H](C)NC(=O)[C@@H]2CSCc3cc(cc(c3)CSC[C@H](NC(=O)[C@H](C)NC(=O)CCOCCOCCOCCNC(=O)CN3CCN(CC(=O)O)CCN(CC(=O)O)CC3)C(=O)N[C@@H](C(C)C)C(=O)N3CCC[C@H]3C(=O)N2)CSC[C@@H](C(N)=O)NC(=O)[C@H](Cc2ccc(O)cc2)NC(=O)[C@H](Cc2c[nH]c3ccccc23)NC1=O [[^68Ga]Ga‐AJ206, metal not drawn] : what is it?
## Result 7.28

###

- METHOD: Ex vivo biodistribution in mice with MM1S tumor xenografts
- CONDITION: both sexes, NSG, mouse, small intestine (with contents), 80 µCi, 120 min p.i.; MM1S xenograft mice; read-out: uptake in small intestine (with contents)
ATTRIBUTE MEASURED: tissue uptake at 2 h (%ID/g)
Report the figure in %ID/g without appending any unit label.

## Task Reported tissue uptake at 2 h for CC[C@H](C)[C@@H]1NC(=O)[C@@H]2CCCN2C(=O)[C@H](Cc2ccccc2)NC(=O)[C@H](CC(=O)O)NC(=O)[C@H](C)NC(=O)[C@@H]2CSCc3cc(cc(c3)CSC[C@H](NC(=O)[C@H](C)NC(=O)CCOCCOCCOCCNC(=O)CN3CCN(CC(=O)O)CCN(CC(=O)O)CC3)C(=O)N[C@@H](C(C)C)C(=O)N3CCC[C@H]3C(=O)N2)CSC[C@@H](C(N)=O)NC(=O)[C@H](Cc2ccc(O)cc2)NC(=O)[C@H](Cc2c[nH]c3ccccc23)NC1=O [[^68Ga]Ga‐AJ206, metal not drawn] : what is it?
## Result 0.52
